- measurement-description: RAM signaling pathway blockade in yeast – S. cerevisiae, Pdr1DBD-CYC8 efflux-inhibited sensitized strain, primary screen (AID 1298);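 further: 0% = DMSO untreated cells without growth and 100% = 10 µM 1-NA-PP1 full growth; higher means more yeast growth rescued from 5-FOA killing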
- condition-label: S. cerevisiae cbk1-as DSE1-URA3 strain, 5-FOA growth OD615, 2 d; at 50 µM; hits give high values
Calls of active or inactive are those of the source.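 How the source made its calls: active means RAM network inhibition above 8.4% in each of two replicates, 3 SD over the compound average; inconclusive means above 8.4% inhibition in only one replicate; inactive means 8.4% inhibition or less in each replicate.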
observed-property: RAM network inhibition

Completed entries (count: 4):
CCCC(=O)C1=C(N(C)c2ccccc2)CC(C)(C)C(C(=O)OC)C1=O (configuration not stated) : 0.26% (inactive)
Clc1ccc(-c2noc(COc3ccccc3)n2)cc1 : 9.14% (inactive)
Cc1nc2c(-c3ccc(F)cc3)c(C)nn2c(C)c1CCC(=O)NC(C)CCc1ccco1 (configuration not stated) : 1.03% (inactive)
Nc1nc2n(n1)C(c1cccc(Br)c1)CC(c1ccccc1)N2 (configuration not stated) : 12.1% (inactive)

# input for lookup
Query: Consider the molecule CCCCC(NC(C)=O)c1nc2ccccc2n1CCC (configuration not stated) and give its recorded RAM network inhibition.
Result: -0.69% (inactive)

Cited source for all entries: PubChem BioAssay
